System: A. baumannii 1318
Format: cell-based, Acinetobacter baumannii
Non-standard residues stand in square brackets, D forms with d. Residues, ends and D or L forms follow the SMILES beside them.
readout: MIC Gram- A. b 1318 (µM)
Express it in µM; write the number only.

Known results for compounds:
compound | MIC Gram- A. b 1318 / µM
CC[C@H](C)[C@H](NC(=O)[C@H](CCCNC(=N)N)NC(=O)[C@H](CCCNC(=N)N)NC(=O)[C@H](CC(C)C)NC(=O)[C@H](Cc1ccccc1)NC(=O)[C@H](CCCNC(=N)N)NC(=O)[C@@H](N)CCCNC(=N)N)C(=O)N[C@@H](Cc1ccccc1)C(=O)N[C@@H](Cc1ccccc1)C(=O)N[C@@H](Cc1ccccc1)C(=O)N[C@@H](Cc1ccccc1)C(N)=O [HT3] (H-RRFLRRIFFFF-NH2; N-terminus assumed) | 6.25
CC[C@@H](C)[C@@H](NC(=O)[C@@H](CCCNC(=N)N)NC(=O)[C@@H](CCCNC(=N)N)NC(=O)[C@@H](CC(C)C)NC(=O)[C@@H](Cc1ccccc1)NC(=O)[C@H](N)CCCNC(=N)N)C(=O)N[C@H](Cc1ccccc1)C(=O)N[C@H](Cc1ccccc1)C(=O)N[C@H](Cc1ccccc1)C(=O)N[C@H](Cc1ccccc1)C(N)=O [D-HT2] (H-[dR][dF][dL][dR][dR][dI][dF][dF][dF][dF]-NH2; N-terminus assumed) | 6.25

--- query ---
INPUT: Using A. baumannii 1318 as the test system, report measured MIC Gram- A. b 1318 of CC[C@H](C)[C@H](NC(=O)[C@@H](CCCNC(=N)N)NC(=O)[C@H](CCCNC(=N)N)NC(=O)[C@H](CC(C)C)NC(=O)[C@H](Cc1ccccc1)NC(=O)[C@H](Cc1ccccc1)NC(=O)[C@H](Cc1ccccc1)NC(=O)[C@@H](N)Cc1ccccc1)C(=O)N[C@@H](Cc1ccccc1)C(N)=O [F-SHf(R^5,dR^6)] (H-FFFFLR[dR]IF-NH2; N-terminus assumed) .
OUTPUT: 25

---

Test system: MRSA USA 300
Format: cell-based, Staphylococcus aureus
Residues, ends and D or L forms follow the SMILES beside them.
readout: MIC Gram+ MRSA USA 300 (µM)
Express it in µM; write the number only.

INPUT: Using MRSA USA 300 as the test system, report measured MIC Gram+ MRSA USA 300 of CC[C@H](C)[C@H](NC(=O)[C@H](CCCNC(=N)N)NC(=O)[C@H](CO)NC(=O)[C@H](CC(C)C)NC(=O)[C@H](Cc1ccccc1)NC(=O)[C@H](Cc1ccccc1)NC(=O)[C@H](Cc1ccccc1)NC(=O)[C@@H](N)Cc1ccc(O)cc1)C(=O)N[C@@H](Cc1ccccc1)C(N)=O [Y-SHf] (H-YFFFLSRIF-NH2; N-terminus assumed) .
OUTPUT: 12.5

INPUT: Using MRSA USA 300 as the test system, report measured MIC Gram+ MRSA USA 300 of CC[C@H](C)[C@H](NC(=O)[C@H](CCCNC(=N)N)NC(=O)[C@H](CCCNC(=N)N)NC(=O)[C@H](CC(C)C)NC(=O)[C@H](Cc1ccccc1)NC(=O)[C@H](CCCNC(=N)N)NC(=O)[C@@H](N)CCCNC(=N)N)C(=O)N[C@@H](Cc1ccccc1)C(=O)N[C@@H](Cc1ccccc1)C(=O)N[C@@H](Cc1ccccc1)C(=O)N[C@@H](Cc1ccccc1)C(N)=O [HT3] (H-RRFLRRIFFFF-NH2; N-terminus assumed) .
OUTPUT: 3.13

The measurements presented in this section are drawn from paper PMC10657444.
